- Tested Target: αGlc 1-P phosphatase (Escherichia coli, UniProt P19926, D396N/Q163K/Y105D)
- Construct: Strep-tag (N); made in house; host or cells: E. coli Origami B (DE3), cytoplasmic, pMS470_dsbC vector (DsbC co-expressed)
- Sequence (P19926 other isoform, or with tags, fused parts or gaps Y105D/Q163K/D396N): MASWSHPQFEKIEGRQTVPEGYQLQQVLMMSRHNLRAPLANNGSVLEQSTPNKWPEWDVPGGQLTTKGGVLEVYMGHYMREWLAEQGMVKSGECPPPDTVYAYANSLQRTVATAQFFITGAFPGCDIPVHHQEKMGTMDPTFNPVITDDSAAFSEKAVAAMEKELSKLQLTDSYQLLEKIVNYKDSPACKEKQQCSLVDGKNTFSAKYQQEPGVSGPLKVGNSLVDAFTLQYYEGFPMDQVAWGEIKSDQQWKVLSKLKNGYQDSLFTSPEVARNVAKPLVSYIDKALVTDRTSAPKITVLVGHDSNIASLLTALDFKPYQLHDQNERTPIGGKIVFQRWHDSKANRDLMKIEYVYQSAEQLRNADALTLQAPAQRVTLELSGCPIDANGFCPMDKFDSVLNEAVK
- Type: biochemical
- Condition Label: 20 mM substrate, 0.1 μM enzyme, 37° C., 50 mM Mes pH 7.0; n.d. = no activity above assay detection limit
- Procedure: Inorganic phosphate was determined colorimetrically at 850 nm (56). Hydrolysis reactions were carried out at an initial substrate concentration of 20 mM. […] Samples were taken in 15 min intervals, heat-treated (99° C., 5 min), and centrifuged at 20,000 g for 5 min. The release of phosphate was measured, and the initial rate V (mM min^−1) was determined from the linear relationship between phosphate concentration and time. […] (2) […]
Attribute Measured: αGlc 1-P phosphatase kcat_app, hydrolysis (s⁻¹)
Entry rule: numbers only, all in s⁻¹.

What value of measured αGlc 1-P phosphatase kcat_app, hydrolysis is listed for O=C(COP(=O)(O)O)[C@@H](O)[C@H](O)[C@H](O)CO [Fru 1-P, D-fructose 1-phosphate] ?
22

Further cases:
What value of measured αGlc 1-P phosphatase kcat_app, hydrolysis is listed for O=C[C@H](O)[C@@H](O)[C@H](O)[C@H](O)COP(=O)(O)O [Glc 6-P, D-glucose-6-phosphate] ?
56

What value of measured αGlc 1-P phosphatase kcat_app, hydrolysis is listed for O=P(O)(O)O[C@H]1O[C@H](CO)[C@@H](O)[C@H](O)[C@H]1O [αGlc 1-P, alpha-glucose-1-phosphate] ?
40
